Data provenance: patent US11679108B2

pIC50: −log10 of the molar value.
ATX (Homo sapiens, UniProt Q13822) pIC50 data

compound: CCc1nc2sc(N3CC[C@@H](N(C)CC(=O)N4CC(O)C4)C3)nn2c1N(C)c1nc(-c2ccc(F)cc2)c(C#N)s1
obsValue: 7.00 to 11.00
//
compound: CCc1nc2sc(C3CCN(S(C)(=O)=O)CC3)nn2c1N(C)c1nc(-c2ccc(F)cc2)c(C#N)s1
obsValue: ≤ 6.00
//
compound: CCc1nc2sc(N3CCC(N(C)C(=O)NC)C3)nn2c1N(C)c1nc(-c2ccc(F)cc2)c(C#N)s1 (stereo not shown)
obsValue: 7.00 to 11.00
//
compound: CCc1nc2sc(N3CCC4(CC3)CN(CC(=O)N3CC(O)C3)C4)nn2c1N(C)c1nc(-c2ccc(F)cc2)c(C#N)s1
obsValue: 6.30 to 7.00
//
compound: CCc1nc2sc(N3CC[C@@H](N(C)C(=O)N4CC(O)C4)C3)nn2c1N(C)c1nc(-c2ccc(F)cc2)c(C#N)s1
obsValue: 7.00 to 11.00
//
compound: COCCc1nc2sc(N3CC[C@@H](N(C)CC(=O)N4CC(O)C4)C3)nn2c1N(C)c1nc(-c2ccc(F)cc2)c(C#N)s1
obsValue: 6.30 to 7.00

Consider now this further compound.
Prompt line: Which measured pIC50 value corresponds to "CCc1nc2sc(N3CCC[C@H](N(C)CC(=O)N4CC(O)C4)C3)nn2c1N(C)c1nc(-c2ccc(F)cc2)c(C#N)s1" ?
Response line: 7.00 to 11.00

----------
Target: ATX in human plasma (Homo sapiens)
Construct: blank plasma was derived from at least 6 individual people
Assay: Analysis in vitro: detection of LPA in human plasma for screening activity (LPA 18:2 by LC/MS/MS)
Conditions: incubated 2 hours at 37° C., LPA 18:2 detected by LC/MS/MS
Description: Analysis In Vitro: Detection of LPA in Human Plasma for Screening Activity Principle: LPC in plasma being used as a substrate, the produced LPA 18:2 (LPA 17:0 as an internal standard) is detected by LC/MS/MS quantitative analysis. […] Experiment procedures: blank plasma was derived from at least 6 individual people. […] LPA 18:2 was detected by LC/MS/MS and IC50 values were analyzed and calculated by software, seeing Table 2.
IC50 values, listed per item

# annotated cases, reported IC50 shown
compound: CCc1nc2sc(N3CCC(N(C)CC(=O)N4CC(O)C4)C3)nn2c1N(C)c1nc(-c2ccc(F)cc2)c(C#N)s1 (centres unmarked) [Example 11]
obsValue: 0.01 to 100 nM
//
compound: CCc1nc2sc(N3CCN(CC(=O)N4CC(O)C4)C(C)(C)C3)nn2c1N(C)c1nc(-c2ccc(F)cc2)c(C#N)s1 [Example 65]
obsValue: 0.01 to 100 nM
//
compound: CCc1nc2sc(N3CC[C@H](N(C)C(=O)N4CC(O)C4)C3)nn2c1N(C)c1nc(-c2ccc(F)cc2)c(C#N)s1 [Example 37]
obsValue: 100 to 500 nM
//
compound: CCc1nc2sc(N3CCN(CC(=O)N4CC(O)C4)C[C@@H]3C)nn2c1N(C)c1nc(-c2ccc(F)cc2)c(C#N)s1 [Example 67]
obsValue: 0.01 to 100 nM
//
compound: CCc1nc2sc(N3CC[C@H](N(C)C(N)=O)C3)nn2c1N(C)c1nc(-c2ccc(F)cc2)c(C#N)s1 [Example 20]
obsValue: 0.01 to 100 nM
//
compound: CCc1nc2sc(N3CC[C@H](N(C)CC(=O)N4CC(O)C4)C3)nn2c1N(C)c1nc(-c2ccc(F)cc2)c(C#N)s1 [Example 22]
obsValue: 0.01 to 100 nM

Prompt line: Tell me reported IC50 for CCc1nc2sc(N3CCN(CC(=O)N4CC(O)C4)C(C)C3C)nn2c1N(C)c1nc(-c2ccc(F)cc2)c(C#N)s1 (centres unmarked) [Example 77] , tested with ATX in human plasma (Homo sapiens).
Response line: 0.01 to 100 nM

Prompt line: Entry to check: CCc1nc2sc(N3CC4(CN(C(N)=O)C4)C3)nn2c1N(C)c1nc(-c2ccc(F)cc2)c(C#N)s1 [Example 9]
Response line: 500 to 1000 nM

Prompt line: Entry to check: CCc1nc2sc(N3CCC(N(C)S(C)(=O)=O)C3)nn2c1N(C)c1nc(-c2ccc(F)cc2)c(C#N)s1 (centres unmarked) [Example 10]
Response line: 0.01 to 100 nM

Prompt line: Entry to check: CCc1nc2sc(N3CCC4(CC3)CN(C(N)=O)C4)nn2c1N(C)c1nc(-c2ccc(F)cc2)c(C#N)s1 [Example 8]
Response line: 100 to 500 nM

Prompt line: Entry to check: CCc1nc2sc(N3CC(N(C)CC(=O)N4CC(O)C4)C3)nn2c1N(C)c1nc(-c2ccc(F)cc2)c(C#N)s1 [Example 63]
Response line: 0.01 to 100 nM

Prompt line: Entry to check: CCc1nc2sc(N3CCN(CC(=O)N4CC(O)C4)C[C@H]3C)nn2c1N(C)c1nc(-c2ccc(F)cc2)c(C#N)s1 [Example 66]
Response line: 0.01 to 100 nM

Prompt line: Entry to check: CCc1nc2sc(N3CC4CN(CC(=O)N5CC(C#N)C5)CC4C3)nn2c1N(C)c1nc(-c2ccc(F)cc2)c(C#N)s1 (centres unmarked) [Example 57]
Response line: 100 to 500 nM

Prompt line: Entry to check: CCc1nc2sc(N3CCC(N(C)CC(=O)O)C3)nn2c1N(C)c1nc(-c2ccc(F)cc2)c(C#N)s1 (centres unmarked) [Example 49]
Response line: 500 to 1000 nM

----------
Target: ATX in human plasma (Homo sapiens, UniProt Q13822)
Construct: blank plasma was derived from at least 6 individual people
Assay: Analysis in vitro: detection of LPA in human plasma for screening activity (LPA 18:2 by LC/MS/MS)
Details: incubated 2 hours at 37° C., LPA 18:2 detected by LC/MS/MS
pIC50: −log10 of the molar value.
readout: pIC50

compound: CCc1nc2sc(N3CCN(C(N)=O)CC3)nn2c1N(C)c1nc(-c2ccc(F)cc2)c(C#N)s1 [Example 7]
testedOn: ATX in human plasma (Homo sapiens, UniProt Q13822)
pIC50: 6.00 to 6.30

compound: CCc1nc2sc(N3CC4CN(CC(=O)N5CC(O)C5)CC4C3)nn2c1N(C)c1nc(-c2ccc(F)cc2)c(C#N)s1 (stereo not shown) [Example 56]
testedOn: ATX in human plasma (Homo sapiens, UniProt Q13822)
pIC50: 7.00 to 11.00

compound: CCc1nc2sc(N3CCC(N(C)C(N)=O)C3)nn2c1N(C)c1nc(-c2ccc(F)cc2)c(C#N)s1 (stereo not shown) [Example 12]
testedOn: ATX in human plasma (Homo sapiens, UniProt Q13822)
pIC50: 7.00 to 11.00

Consider now this further compound.
Prompt line: Which measured pIC50 value corresponds to CCc1nc2sc(N3CC4(CCN(CC(=O)N5CC(C#N)C5)C4)C3)nn2c1N(C)c1nc(-c2ccc(F)cc2)c(C#N)s1 [Example 53] ?
Response line: 7.00 to 11.00

----------
Molecular target: ATX in human plasma (Homo sapiens, UniProt Q13822)
Construct: blank plasma was derived from at least 6 individual people
Test: Analysis in vitro: detection of LPA in human plasma for screening activity (LPA 18:2 by LC/MS/MS)
Details: incubated 2 hours at 37° C., LPA 18:2 detected by LC/MS/MS
readout: IC50

molecule: CCc1nc2sc(N3CC[C@H](N(C)CC(=O)N4CC(F)C4)C3)nn2c1N(C)c1nc(-c2ccc(F)cc2)c(C#N)s1
IC50: 100 to 500 nM

Prompt line: Which measured IC50 value corresponds to CCc1nc2sc(N3CC[C@@H](N(C)C(C)C(=O)N4CC(O)C4)C3)nn2c1N(C)c1nc(-c2ccc(F)cc2)c(C#N)s1 (stereo partly shown) ?
Response line: 0.01 to 100 nM

Prompt line: Entry to check: "CCc1nc2sc(N3C[C@H](C)N(CC(=O)N4CC(O)C4)C[C@@H]3C)nn2c1N(C)c1nc(-c2ccc(F)cc2)c(C#N)s1"
Response line: 0.01 to 100 nM

Prompt line: Entry to check: "CCc1nc2sc(N3C[C@@H]4C[C@H]3CN4CC(=O)N3CC(C#N)C3)nn2c1N(C)c1nc(-c2ccc(F)cc2)c(C#N)s1"
Response line: 100 to 500 nM

----------
Molecular target: ATX in human plasma (Homo sapiens, UniProt Q13822)
Construct: blank plasma was derived from at least 6 individual people; from tissue; host or cells: human plasma (pooled from at least 6 individuals)
Assay: Analysis in vitro: detection of LPA in human plasma for screening activity (LPA 18:2 by LC/MS/MS)
Type: biochemical
Conditions: incubated 2 hours at 37° C., LPA 18:2 detected by LC/MS/MS
readout: IC50

compound: CCc1nc2sc(N3C[C@@H](C)N(CC(=O)N4CC(O)C4)[C@@H](C)C3)nn2c1N(C)c1nc(-c2ccc(F)cc2)c(C#N)s1
IC50: 100 to 500 nM

Prompt line: Tell me reported IC50 for "CCc1nc2sc(N3CCN(CC(=O)N4CC(O)C4)[C@H](C)C3)nn2c1N(C)c1nc(-c2ccc(F)cc2)c(C#N)s1" , tested with ATX in human plasma (Homo sapiens, UniProt Q13822).
Response line: 100 to 500 nM

Prompt line: Entry to check: CCc1nc2sc(N3CCCC(N(C)C(N)=O)C3)nn2c1N(C)c1nc(-c2ccc(F)cc2)c(C#N)s1 (stereo not shown)
Response line: 0.01 to 100 nM

Prompt line: Entry to check: "CCc1nc2sc(N3CCN(CC(=O)N4CC(O)C4)CC3)nn2c1N(C)c1nc(-c2ccc(F)cc2)c(C#N)s1"
Response line: 100 to 500 nM
